Examples of compounds with documented EC50 follow.
test system: Enterobacter cloacae strain CDC 442-68 (ATCC #13047); assay: bacterial proliferation assay, E. cloacae; format: cell-based; conditions: ATCC13047, read-out: Bacterial Proliferation EC50 E. cloacae

{"Molecule": "O=C(N/N=C/c1ccc(O)c2ncccc12)c1ccc(NS(=O)(=O)c2cccs2)cc1", "EC50": "> 100 µM"}
{"Molecule": "COc1ccc(C(=O)N/N=C/c2cccc3ncccc23)cc1", "EC50": "> 100 µM"}
{"Molecule": "O=C(N/N=C/c1ccc([N+](=O)[O-])o1)c1cccc2ccccc12", "EC50": "> 100 µM"}

###

test system: FHC colon cells; assay: in vitro
# key: entry, value: SI (CC50/EC50) Colon
Quantity name: SI (CC50/EC50) Colon

{"Compound": "O=C(N/N=C/c1ccc([N+](=O)[O-])o1)c1ccccc1 [Compound 18]", "Quantity name": "SI (CC50/EC50) Colon", "Reading": ">48"}
{"Compound": "CN(C)c1ccc(C(=O)N/N=C/c2ccc([N+](=O)[O-])o2)cc1 [Compound 21]", "Quantity name": "SI (CC50/EC50) Colon", "Reading": ">10"}
{"Compound": "COc1ccc(C(=O)N/N=C/c2ccc([N+](=O)[O-])o2)cc1 [Compound 20]", "Quantity name": "SI (CC50/EC50) Colon", "Reading": ">53"}

###

Target: UniProt:P00586
Sequence (P00586 1-297): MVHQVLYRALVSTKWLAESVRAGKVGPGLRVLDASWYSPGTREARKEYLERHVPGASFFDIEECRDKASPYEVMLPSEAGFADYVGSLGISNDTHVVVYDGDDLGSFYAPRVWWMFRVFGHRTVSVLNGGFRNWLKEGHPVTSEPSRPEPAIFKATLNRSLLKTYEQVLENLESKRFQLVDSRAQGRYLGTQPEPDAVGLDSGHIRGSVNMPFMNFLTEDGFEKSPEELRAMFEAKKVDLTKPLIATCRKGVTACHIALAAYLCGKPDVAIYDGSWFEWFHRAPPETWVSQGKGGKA
Experiment: native rhodanese enzymatic activity counter-screen
Type: biochemical
Conditions: compounds added after refolding; read-out: Native Rho Activity IC50
Protocol: Counter-screening compounds for inhibition of native rhodanese enzymatic activity. […] Thus, the refolding reactions were allowed to proceed for 50 min at 37° C. in the absence of test compounds, but the enzymatic activity of the refolded rhodanese reporter enzyme was monitored in the presence of test compounds (inhibitor concentration range during the enzymatic reporter reaction is 100 μM to 46 nM—3-fold dilutions). IC50 values for the rhodanese reporter enzyme were determined as described above. […]
Quantity name: log10 IC50 (log10 of the value in µM)

{"Molecule": "O=C(N/N=C/c1ccc(O)c2ncccc12)c1cccc2ccccc12", "log10 IC50": 1.99}
{"Molecule": "O=C(N/N=C/c1ccc([N+](=O)[O-])o1)c1ccccc1Oc1ccccc1", "log10 IC50": 1.63}
{"Molecule": "O=Cc1ccc(O)c2ncccc12 [Compound 40, reference compound]", "log10 IC50": 1.26}
{"Molecule": "CN(C)c1ccc(C(=O)N/N=C/c2ccc(O)c3ncccc23)cc1", "log10 IC50": 1.83}
{"Molecule": "O=C(N/N=C/c1ccc([N+](=O)[O-])o1)c1ccncc1", "log10 IC50": 1.58}
{"Molecule": "O=C(N/N=C/c1ccc([N+](=O)[O-])o1)c1ccc(Cl)s1", "log10 IC50": 1.75}
{"Molecule": "O=C(N/N=C/c1ccc(O)c2ncccc12)c1ccc(O)cc1", "log10 IC50": 1.86}
{"Molecule": "O=C(N/N=C/c1ccc(O)c2ncccc12)c1cccs1", "log10 IC50": 1.94}
{"Molecule": "O=C(N/N=C/c1ccc([N+](=O)[O-])o1)c1cccc2ccccc12", "log10 IC50": 1.65}
{"Molecule": "O=C(N/N=C/c1ccc(O)c2ncccc12)c1ccccc1Oc1ccccc1", "log10 IC50": 1.95}
{"Molecule": "O=[N+]([O-])c1ccc(O)c2ncccc12 [Nitroxoline, reference compound]", "log10 IC50": 0.30}
{"Molecule": "O=Cc1ccc([N+](=O)[O-])o1 [Compound 41, reference compound]", "log10 IC50": 1.51}
{"Molecule": "COc1ccc(C(=O)N/N=C/c2ccc(O)c3ncccc23)cc1", "log10 IC50": 1.99}
{"Molecule": "O=C(N/N=C/c1ccc(O)c2ccccc12)c1ccccc1", "log10 IC50": 1.99}
